Target under test: UniProt Q9H0H5
Sequence (Q9H0H5 whole entry): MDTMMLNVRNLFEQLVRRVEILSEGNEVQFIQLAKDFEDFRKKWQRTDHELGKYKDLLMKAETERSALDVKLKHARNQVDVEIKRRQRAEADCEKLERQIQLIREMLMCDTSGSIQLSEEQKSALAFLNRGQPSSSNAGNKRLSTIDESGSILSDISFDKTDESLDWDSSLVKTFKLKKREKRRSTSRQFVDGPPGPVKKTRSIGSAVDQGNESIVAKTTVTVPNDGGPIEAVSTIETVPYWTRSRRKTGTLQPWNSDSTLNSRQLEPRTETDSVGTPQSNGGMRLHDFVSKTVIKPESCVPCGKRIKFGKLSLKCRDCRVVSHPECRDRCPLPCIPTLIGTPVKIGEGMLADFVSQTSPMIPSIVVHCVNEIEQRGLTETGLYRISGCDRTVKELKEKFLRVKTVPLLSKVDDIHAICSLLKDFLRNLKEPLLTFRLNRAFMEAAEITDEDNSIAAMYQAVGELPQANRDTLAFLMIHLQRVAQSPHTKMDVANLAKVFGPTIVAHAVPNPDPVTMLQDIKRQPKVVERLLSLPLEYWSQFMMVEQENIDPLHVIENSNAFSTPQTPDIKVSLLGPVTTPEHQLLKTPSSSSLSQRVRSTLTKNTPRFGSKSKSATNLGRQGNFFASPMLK
Method description: MgcRacGAP GTPase-activating activity inhibitors, confirmation, biochemical, ADP Hunter fluorescence, primary and confirmatory (AID 624330)
Assay type: functional
Calls of active or inactive are those of the source.
Recorded metric: IC50

Solved cases below.
Compound smiles	Measurement
COc1ccc2[nH]c3c(C)c4cc[n+](C)cc4c(C)c3c2c1	24.7 µM (active)
C[n+]1c2cc(N)ccc2cc2ccc(N)cc21	97.5 µM (active)

Lab note: next compound to report on.
Form: compound = Nc1ccc2nc(N)sc2c1 ; IC50 = 9.57 µM (active)

* * *

Each entry below carries its recorded IC50.
Target under test: Sentrin-specific protease 7 (Homo sapiens);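 note: Luminescence-based dose-response confirmation of ultra-high-throughput screening hits, measuring inhibition of SENP7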
Sequence (Q9BQF6 whole entry): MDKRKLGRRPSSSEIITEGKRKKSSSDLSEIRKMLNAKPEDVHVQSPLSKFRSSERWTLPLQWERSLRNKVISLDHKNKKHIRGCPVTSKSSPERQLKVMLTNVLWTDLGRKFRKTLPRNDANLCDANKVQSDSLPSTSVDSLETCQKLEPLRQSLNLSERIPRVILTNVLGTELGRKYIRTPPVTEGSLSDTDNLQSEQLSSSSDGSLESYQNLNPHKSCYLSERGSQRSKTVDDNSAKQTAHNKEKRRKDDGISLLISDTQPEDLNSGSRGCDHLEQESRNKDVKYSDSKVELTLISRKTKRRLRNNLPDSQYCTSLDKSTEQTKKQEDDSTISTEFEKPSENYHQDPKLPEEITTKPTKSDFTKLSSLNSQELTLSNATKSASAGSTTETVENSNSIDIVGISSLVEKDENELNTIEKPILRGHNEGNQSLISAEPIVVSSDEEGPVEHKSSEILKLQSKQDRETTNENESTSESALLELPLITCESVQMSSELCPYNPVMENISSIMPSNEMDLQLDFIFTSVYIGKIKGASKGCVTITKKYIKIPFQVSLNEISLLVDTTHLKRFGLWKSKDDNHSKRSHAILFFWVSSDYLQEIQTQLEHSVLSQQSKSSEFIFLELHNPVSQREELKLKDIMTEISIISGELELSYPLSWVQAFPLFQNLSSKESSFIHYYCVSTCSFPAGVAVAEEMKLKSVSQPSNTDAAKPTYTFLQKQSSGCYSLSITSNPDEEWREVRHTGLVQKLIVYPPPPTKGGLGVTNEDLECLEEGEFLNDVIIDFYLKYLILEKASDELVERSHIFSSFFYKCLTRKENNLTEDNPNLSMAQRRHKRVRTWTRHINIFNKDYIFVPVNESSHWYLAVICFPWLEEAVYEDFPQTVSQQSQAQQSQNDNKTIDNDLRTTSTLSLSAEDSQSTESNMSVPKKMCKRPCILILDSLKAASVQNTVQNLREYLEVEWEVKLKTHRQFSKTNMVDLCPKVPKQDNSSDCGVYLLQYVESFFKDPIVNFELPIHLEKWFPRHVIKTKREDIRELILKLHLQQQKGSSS
Type: functional
Calls of active or inactive are those of the source.

Solved cases below.
Compound smiles	IC50
CC(C)=CCC1=C(OCC(=O)O)C(=O)c2ccccc2C1=O	3.97 µM (active)
O=C(COC(=O)c1ccc([N+](=O)[O-])s1)NNC(=O)c1ccccc1	6.91 µM (active)
COc1cccc(-c2nc(=S)c3c(o2)CCCC3)c1	8.32 µM (active)
COc1ccc(C(=N)NOC(=O)C2CCCCC2)cc1	9.16 µM (active)
C#CCN1C(=O)S/C(=C\c2ccc(-c3ccc(Cl)c(C(=O)O)c3)o2)C1=O	7.59 µM (active)

Lab note: next compound to report on.
Form: compound = Cc1cc(C(=O)Nc2ccc(N3CCCC3)c(Cl)c2)ccc1[N+](=O)[O-] ; IC50 = 5.48 µM (active)
